B1: Hairpin Ribozyme (parent)
chain: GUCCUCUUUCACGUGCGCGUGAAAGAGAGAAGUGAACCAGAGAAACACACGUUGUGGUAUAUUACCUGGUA

variants of: B1; assay: self-cleavage, relative activity (ratio to wild type); higher = more cleavage; co-transcriptional
self-cleavage vs 0.3: at or above is 1, below is -1.

The following variants have reported results that may help.
   mutations  group_label
0   U7A U53G            1
1   U5G C46A           -1
2  G32C A36U           -1
3  C65G A71U           -1
4  G42C C66A           -1

# input Check if self-cleavage >= 0.3 (inclusive). Item: `G68U`
# output -1

# input Check if self-cleavage >= 0.3 (inclusive). Item: G1C A71G
# output 1

# input Check if self-cleavage >= 0.3 (inclusive). Item: G19U A35C
# output 1
